All values here come from the supplement of paper PMC10567573.

B1: WDFY2 (parent)
chain: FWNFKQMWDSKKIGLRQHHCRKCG

variants of: B1; experiment: protein stability index of a GFP-peptide fusion (GPS, HEK-293T) (PSI 1-6); higher = more stable; conditions: c terminus: a fixed tail appended;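 note: lentivirally expressed fusions sorted by FACS into six bins by GFP to DsRed ratio, PSI derived from sequencing read proportions per bin multiplied by bin number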
Classification field: enter rule met for protein stability index values not below 2, rule not met for values below it.

# mutant, answerLabel
rows = [
    ("K22T", "rule met"),
    ("C20F", "rule met"),
    ("Q17E", "rule not met"),
    ("M7G", "rule not met"),
    ("K11P", "rule met"),
    ("M7N", "rule not met"),
    ("K11L", "rule not met"),
    ("F1I", "rule met"),
]

Request: Kindly determine if protein stability index recorded for W2H is above or exactly 2.
Response: rule met

Request: Could you please find out whether Q6A has protein stability index that meets 2 or exceeds it?
Response: rule not met

Request: Can H18C be said to have protein stability index at or above 2?
Response: rule met
